target.of.assay: Androgen receptor (Rattus norvegicus, UniProt P15207)
Sequence (P15207 whole entry): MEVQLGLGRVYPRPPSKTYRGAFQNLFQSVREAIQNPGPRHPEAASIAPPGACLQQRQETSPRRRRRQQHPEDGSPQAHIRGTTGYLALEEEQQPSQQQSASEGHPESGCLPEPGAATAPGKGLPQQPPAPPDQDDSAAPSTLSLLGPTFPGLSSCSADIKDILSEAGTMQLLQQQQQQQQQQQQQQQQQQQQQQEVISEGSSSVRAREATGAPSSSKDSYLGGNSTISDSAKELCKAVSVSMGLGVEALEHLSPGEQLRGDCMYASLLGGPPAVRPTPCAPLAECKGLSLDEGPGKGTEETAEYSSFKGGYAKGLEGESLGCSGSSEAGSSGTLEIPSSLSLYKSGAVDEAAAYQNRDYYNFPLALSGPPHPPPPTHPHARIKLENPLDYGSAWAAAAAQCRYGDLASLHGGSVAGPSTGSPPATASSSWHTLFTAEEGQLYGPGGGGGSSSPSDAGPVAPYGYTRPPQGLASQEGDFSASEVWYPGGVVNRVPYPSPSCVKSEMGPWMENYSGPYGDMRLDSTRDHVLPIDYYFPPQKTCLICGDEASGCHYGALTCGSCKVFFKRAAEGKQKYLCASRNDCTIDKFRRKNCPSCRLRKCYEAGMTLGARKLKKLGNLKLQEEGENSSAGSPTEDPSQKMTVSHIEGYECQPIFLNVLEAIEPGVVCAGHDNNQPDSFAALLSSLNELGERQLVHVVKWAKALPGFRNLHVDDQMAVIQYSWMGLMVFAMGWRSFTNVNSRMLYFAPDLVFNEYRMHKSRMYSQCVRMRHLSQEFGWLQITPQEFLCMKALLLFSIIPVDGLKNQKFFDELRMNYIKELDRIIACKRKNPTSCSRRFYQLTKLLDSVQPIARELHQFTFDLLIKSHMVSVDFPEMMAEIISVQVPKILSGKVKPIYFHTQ
recorded.metric: Ki (µM)
Give a bare numeral; the unit µM is implied.

Exercise: Please report the measured Ki for CC(=O)N1CCN(CCOc2ccc(C3CCN(C4=Nn5c(nnc5C(F)(F)F)CC4)CC3)cc2)CC1 [AZD3514]
Solution: 5
